Experimental Target: NSD2 [1-1365] (Homo sapiens (Human), UniProt O96028)
Sequence (O96028 whole entry): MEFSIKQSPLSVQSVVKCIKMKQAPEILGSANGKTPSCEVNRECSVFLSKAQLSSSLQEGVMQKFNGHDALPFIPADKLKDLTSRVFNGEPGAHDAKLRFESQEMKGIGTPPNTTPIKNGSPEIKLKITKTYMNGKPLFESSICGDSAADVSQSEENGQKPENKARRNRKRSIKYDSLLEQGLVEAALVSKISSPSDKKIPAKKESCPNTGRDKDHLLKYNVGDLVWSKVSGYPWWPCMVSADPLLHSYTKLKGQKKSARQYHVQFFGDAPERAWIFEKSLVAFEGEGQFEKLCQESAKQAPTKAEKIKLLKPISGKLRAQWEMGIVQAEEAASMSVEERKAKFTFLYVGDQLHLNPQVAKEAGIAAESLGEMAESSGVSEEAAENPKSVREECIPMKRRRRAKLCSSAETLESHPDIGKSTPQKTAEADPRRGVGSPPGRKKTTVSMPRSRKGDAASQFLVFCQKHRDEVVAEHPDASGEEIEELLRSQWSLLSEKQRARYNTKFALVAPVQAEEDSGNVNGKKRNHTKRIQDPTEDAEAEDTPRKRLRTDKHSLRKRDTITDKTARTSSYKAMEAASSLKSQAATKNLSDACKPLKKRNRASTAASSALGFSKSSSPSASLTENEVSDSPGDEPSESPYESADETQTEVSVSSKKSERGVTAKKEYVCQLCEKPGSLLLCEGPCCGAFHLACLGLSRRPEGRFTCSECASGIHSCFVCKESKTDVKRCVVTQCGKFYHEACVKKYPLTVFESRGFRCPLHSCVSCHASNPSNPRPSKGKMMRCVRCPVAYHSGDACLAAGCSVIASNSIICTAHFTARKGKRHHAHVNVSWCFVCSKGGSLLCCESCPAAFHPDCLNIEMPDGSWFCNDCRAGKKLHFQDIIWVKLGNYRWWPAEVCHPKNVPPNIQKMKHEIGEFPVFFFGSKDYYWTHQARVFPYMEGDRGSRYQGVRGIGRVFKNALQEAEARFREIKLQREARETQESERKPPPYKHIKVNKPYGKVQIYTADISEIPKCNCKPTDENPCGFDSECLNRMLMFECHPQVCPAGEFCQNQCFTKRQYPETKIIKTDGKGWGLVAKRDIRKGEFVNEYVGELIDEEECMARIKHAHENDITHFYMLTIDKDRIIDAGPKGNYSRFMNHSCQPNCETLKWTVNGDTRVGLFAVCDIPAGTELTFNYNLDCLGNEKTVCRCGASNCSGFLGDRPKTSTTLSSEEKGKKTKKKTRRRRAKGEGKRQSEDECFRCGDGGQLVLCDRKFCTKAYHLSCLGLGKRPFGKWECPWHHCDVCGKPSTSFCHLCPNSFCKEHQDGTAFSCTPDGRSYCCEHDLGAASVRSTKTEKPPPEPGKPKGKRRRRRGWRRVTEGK
Experiment Description: LC-MS/MS-based NSD2 enzymatic assay (SAH production)
Assay type: biochemical
Applied Conditions: NSD2 biochemical activity, class symbols; read-out: NSD2 IC50
Measured IC50 of individual entries

# Compound, IC50
rows = [
    ("CC1(C(=O)C2(N)CCCN(c3cnc(-c4ccc(F)c(F)c4)cc3Cn3cnc4c(N)ncnc43)C2)CC1 (stereo not drawn)", "10 to 1000 nM"),
    ("Nc1ncnc2c1ncn2Cc1cc(-c2ccc(Cl)c(F)c2)ncc1N1CCC[C@](N)([C@H](O)C(F)F)C1", "10 to 1000 nM"),
]

Need IC50, item `Nc1ncnc2c1ncn2Cc1cc(-c2ccc(F)c(F)c2)ncc1N1CCC[C@](N)(Cc2nccs2)C1`
1 to 10 nM

Follow-up item: `COc1ccc(-c2cc(Cn3cnc4c(N)nccc43)c(N3CCC[C@](N)(Cc4ccccn4)C3)cn2)cc1F`
1 to 10 nM

Same question for Nc1ncnc2c1ncn2Cc1cc(-c2ccc(CNC(=O)CCl)cc2)ncc1N1CCCC(N)(CC(F)F)C1 (stereo not drawn) please.
10 to 1000 nM

Now the compound `CNC(=O)[C@@]1(N)CCCN(c2cnc(-c3cccc(F)c3)cc2Cn2cnc3c(N)ncnc32)C1`
1 to 10 nM

Entry to check: `Nc1nccc2c1ncn2Cc1cc(-c2ccc(F)c(F)c2)ncc1N1CCC[C@](N)(Cc2ncco2)C1`
10 to 1000 nM

Also need N#CCC1(N)CCCN(c2cnc(-c3ccc(F)c(F)c3)cc2Cn2cnc3c(N)ncnc32)C1 (stereo not drawn) , thanks.
> 1000 nM

---

Experimental Target: NSD2 [1-1365] (Homo sapiens (Human))
Experiment Description: LC-MS/MS-based NSD2 enzymatic assay (SAH production)
Format: biochemical
Applied Conditions: NSD2 biochemical activity, class symbols; read-out: NSD2 IC50
pIC50: −log10 of the molar value.
pIC50: recorded values

Here's what some known entries look like.
# Compound, Observed Measurement
rows = [
    ("Nc1ncnc2c1ncn2Cc1cc(-c2ccc(F)c(F)c2)ncc1N1CCC[C@](N)(Cc2ccccn2)C1 [Example 54]", "8.00 to 9.00"),
    ("Nc1ncnc2c1ncn2Cc1cc(-c2cccc(F)c2)ncc1N1CCC(F)(F)C(N)C1 (stereo not drawn) [Example 17]", "< 6.00"),
    ("COc1ccc(-c2cc(Cn3cnc4c(N)nccc43)c(N3CCC[C@](N)(Cc4nccs4)C3)cn2)cc1F [Example 57]", "8.00 to 9.00"),
]

Give its pIC50 value. Item: COC1CCC(C(=O)C2(N)CCCN(c3cnc(-c4ccc(F)c(F)c4)cc3Cn3cnc4c(N)ncnc43)C2)C1 (stereo not drawn) [Example 106]
6.00 to 8.00

---

Experimental Target: NSD2 [1-1365] (Homo sapiens (Human), UniProt O96028)
Experiment Description: LC-MS/MS-based NSD2 enzymatic assay (SAH production)
Assay type: biochemical
Applied Conditions: NSD2 biochemical activity, class symbols; read-out: NSD2 IC50
pIC50: −log10 of the molar value.
Item-by-item account of pIC50

Examples with answers:
# Molecule, pIC50
data = [
    ("Cc1cc(C(F)F)ccc1-c1cc(Cn2cnc3c(N)ncnc32)c(N2CCC[C@](N)([C@H](O)C(F)F)C2)cn1", "6.00 to 8.00"),
    ("CN(C)C(=O)C[C@@]1(N)CCCN(c2cnc(-c3ccc(F)c(F)c3)cc2Cn2cnc3c(N)nccc32)C1", "8.00 to 9.00"),
    ("COc1ccc(-c2cc(Cn3cnc4c(N)ncnc43)c(N3CCC[C@](N)(CC(F)F)C3)cn2)cc1F", "6.00 to 8.00"),
    ("Cc1cc(C(F)F)ccc1-c1cc(Cn2cnc3c(N)ncnc32)c(N2CCC[C@](N)([C@@H](O)C(F)F)C2)cn1", "8.00 to 9.00"),
    ("COc1c(F)cc(-c2cc(Cn3cnc4c(N)ncnc43)c(N3CCC[C@](N)(C(O)C(F)F)C3)cn2)cc1F (stereo in doubt) [Example 164]", "8.00 to 9.00"),
]

Please give the measured pIC50 for this molecule: `Nc1ncnc2c1ncn2Cc1cc(-c2ccccc2F)ncc1N1CC[C@@H](F)[C@@H](N)C1`
6.00 to 8.00

# iterate: `Nc1ncnc2c1ncn2Cc1cc(-c2ccc(OC(F)F)cc2F)ncc1N1CCC[C@](N)([C@H](O)C(F)F)C1`
6.00 to 8.00
